pIC50: −log10 of the molar value.
Heads up, these molecules all have pIC50 values measured for 11-beta-hydroxysteroid dehydrogenase 1 (Homo sapiens).
readout: pIC50

molecule: O=C1C=C[C@@]2(CC1)C(COCc1ccccc1)=CC[C@@H]2CO
readout: pIC50
reported result: < 3.00

molecule: O=C1C=C[C@@]2(CC1)C(c1ccccc1)=CC[C@@H]2CO
readout: pIC50
reported result: < 3.00

molecule: CC(C)C1=CC[C@H](CO[Si](C)(C)C(C)(C)C)[C@]12CC[C@@]1(O[Si](C)(C)C(C)(C)C)O[C@H]1C2
readout: pIC50
reported result: < 3.00

molecule: CCn1c2ccccc2c2nnc(SC[C@H]3CC=C(C(C)C)[C@]34C=CC(=O)CC4)nc21
readout: pIC50
reported result: 4.48

molecule: CC(C)C1=CC[C@H]2C(=O)O[C@@H]3CC(=O)CC[C@@]132
readout: pIC50
reported result: < 3.00

molecule: CC(C)C1=CC[C@H](CN2C(=O)c3ccccc3S2(=O)=O)[C@@]12C=CC(=O)CC2
readout: pIC50
reported result: 3.47

molecule: CC(C)=CCC/C(C)=C/CNC(=O)[C@H]1CC=C(C(C)C)[C@]12C=CC(=O)CC2
readout: pIC50
reported result: 4.74

molecule: C=C1C(=O)C[C@]2(C[C@@H]1OC(C)=O)[C@@H](C(=O)OCC)CC[C@H]2C(C)C
readout: pIC50
reported result: < 3.00

molecule: CC(C)C1=CC[C@H](C(=O)NC(C)C23CC4CC(CC(C4)C2)C3)[C@@]12C=CC(=O)CC2 (some centres undefined)
readout: pIC50
reported result: 4.07

molecule: CCOC(=O)[C@H]1CC[C@@H](C(C)C)[C@]12C=CC(O)[C@@H](OC(C)=O)C2 (single isomer, unassigned)
readout: pIC50
reported result: < 3.00

molecule: CC(C)C1=CC[C@H](CSc2ccc3ccccc3c2)[C@@]12C=CC(=O)CC2
readout: pIC50
reported result: < 3.00

molecule: CC(C)C1=CC[C@H](CO)[C@]12CC[C@@](C)(O)C[C@H]2O
readout: pIC50
reported result: < 3.00

molecule: CC(C)C1=CC[C@H](CO)C12CCC(=O)CC2
readout: pIC50
reported result: < 3.00

molecule: CC(C)C1=CC[C@H](C(=O)NCc2cc(F)cc(F)c2)[C@@]12C=CC(=O)CC2
readout: pIC50
reported result: < 3.00

These measurements were taken from ChEMBL document CHEMBL3763116.
